# Test system: Pseudomonas fluorescens HPPD polypeptide (wild-type and mutants)
# assay.text: Coupled HPPD activity assay: turnover and residual turnover in crude HPPD polypeptide extracts with and without Cmpd. 1
# Format: biochemical
# condition.info: presence of 100 μM Cmpd. 1; changes in absorbance (OD) at 320 nm in the coupled assay, 30 min
Reported Residual turnover values for a set of molecules
Just the number, please, no unit attached.

molecule	Residual turnover
SEQ ID NO:42 (protein, mutant HPPD polypeptide) MADLYENPMGLMGFEFIEFASPTPGTLEPIFEIMGFTKVATHRSKNVHLYRQGEINLILNNEPNSIASYFAAEHGPSVCGMAFRVKDSQKAYNRALELGAQPIHIDTGPMELNLPAIKGIGGAPLYLIDRFGEGSSIYDIDFVYLEGVERNPVGAGLKVIDHLTHNVYRGRMVYWANFYEKLFNFREARYFDIKGEYTGLTSKAMSAPDGMIKIPLNEESSKGAGQIEEFLMQFNGEGIQHVAFLTDDLVKTWDALKKIGMRFMTAPGDEYYEMLEGRLPDHGEPVDQLQARGILLDGSSVEGDKRLLLQIFSETLMGPVFFEFIQRKGDDGFGPDSFKVLFESMERDQVRRGVLTAD	0.068
SEQ ID NO:23 (protein, mutant HPPD polypeptide) MADLYENPMGLMGFEFIEFASPTPGTLEPIFEIMGFTKVATHRSKNVHLYRQGEINLILNNEPNSIASYFAAEHGPSVCGMAFRVKDSQKAYNRALELGAQPIHIDTGPMELNLPAIKGIGGAPLYLIDRFGEGSSIYDIDFVYLEGVERNPVGAGLKVIDHLTHNVYRGRMVYWANFYEKLFNFREARYFDIKGEYTGLTSKAMSAPDGMIRIPLNEESSKGAGQIEEFLMQFNGEGIQHVAFLTDDLVKTWDALKKIGMRFMTAPGDEYYEMLEGRLPDHGEPVDQLQARGILLDGSSVEGDKRLLLQIFSEQLMGPVFFEFIQRKGDDGFGPHSFKVLFESIERDQVRRGVLTAD	0.131
SEQ ID NO:41 (protein, mutant HPPD polypeptide) MADLYENPMGLMGFEFIEFASPTPGTLEPIFEIMGFTKVATHRSKNVHLYRQGEINLILNNEPNSIASYFAAEHGPSVCGMAFRVKDSQKAYNRALELGAQPIHIDTGPMELNLPAIKGIGGAPLYLIDRFGEGSSIYDIDFVYLEGVERNPVGAGLKVIDHLTHNVYRGRMVYWANFYEKLFNFREARYFDIKGEYTGLTSKAMSAPDGMIKIPLNEESSKGAGQIEEFLMQFNGEGIQHVAFLTDDLVKTWDALKKIGMRFMTAPGDEYYEMLEGRLPDHGEPVDQLQARGILLDGSSVEGDKRLLLQIFSERLMGPVFFEFIQRKGDDGFGPDSFKVLFESMERDQVRRGVLTAD	0.105

Kindly consider the entry below.
// sample SEQ ID NO:38 (protein, mutant HPPD polypeptide) MADLYENPMGLMGFEFIEFASPTPGTLEPIFEIMGFTKVATHRSKNVHLYRQGEINLILNNEPNSIASYFAAEHGPSVCGMAFRVKDSQKAYNRALELGAQPIHIDTGPMELNLPAIKGIGGAPLYLIDRFGEGSSIYDIDFVYLEGVERNPVGAGLKVIDHLTHNVYRGRMVYWANFYEKLFNFREARYFDIKGEYTGLTSKAMSAPDGMIRIPLNEESSKGAGQIEEFLMQFNGEGIQHVAFLTDDLVKTWDALKKIGMRFMTAPGDEYYEMLEGRLPDHGEPVDQLQARGILLDGSSVEGDKRLLLQIFSETLMGPVFFEFIQRKGDDGFGPHSFKVLFEQMERDQVRRGVLTAD , its Residual turnover was 0.007

This collection of values is drawn from patent US11371056B2.
